Test system: CD8+ and CD4+ T cells (autologous CD3+ Pan-T cells isolated from human normal PBMCs)
METHOD_SUMMARY: Exogenous autologous normal donor restimulation assay (15-mer overlapping peptide pools on CD1c+ dendritic cells, TNFα/IFNγ flow cytometry)
Assay type: cell-based
RECORDED_CONDITIONS: Table 25; 15-mer overlapping peptide pool; highest frequency across normal donors
QUANTITY_MEASURED: Maximum Frequency of TNFα/IFNγ Double Positive CD8+ T cells

- SEQUENCE_CODE: "KIQNKNCPD (listed as Homo sapiens) [AS23, ZNF614 alternative splicing]"
  ENDPOINT_RESULT: 0.07
- SEQUENCE_CODE: "CGASACDVSLIAMDSA (listed as Homo sapiens) [FUS1, SLC45A3->ELK4 gene fusion]"
  ENDPOINT_RESULT: 0.031
- SEQUENCE_CODE: "QWQHYHRSGEAAGTPLWRPTRN (listed as Homo sapiens) [AS19, NWD1 alternative splicing]"
  ENDPOINT_RESULT: 0.63
- SEQUENCE_CODE: "CEERGAAGSLISCE (listed as Homo sapiens) [FUS6, TMPRSS2->ERG gene fusion]"
  ENDPOINT_RESULT: 0.056
- SEQUENCE_CODE: "TEYNQKLQVNQFSESK (listed as Homo sapiens) [FUS2, ARHGEF38->ARHGEF38-IT1 gene fusion]"
  ENDPOINT_RESULT: 0.05
- SEQUENCE_CODE: "NSKMALNSLNSIDDAQLTRIAPPRSHCCFWEVNAP (listed as Homo sapiens) [Neoantigen P35]"
  ENDPOINT_RESULT: 0.26
- SEQUENCE_CODE: "YEAGMTLGEKFRVGNCKHLKMTRP (listed as Homo sapiens) [Neoantigen P82]"
  ENDPOINT_RESULT: 0.09

###

Test system: CD8+ and CD4+ T cells (autologous CD3+ Pan-T cells isolated from human normal PBMCs)
METHOD_SUMMARY: Exogenous autologous normal donor restimulation assay (15-mer overlapping peptide pools on CD1c+ dendritic cells, TNFα/IFNγ flow cytometry)
Format: cell-based
RECORDED_CONDITIONS: Table 28; additional neoantigens; 15-mer overlapping peptide pool; highest across normal donors
Threshold check on Max. Frequency of CD4+ TNFαINFγ DP: at or above 0.1 gives met, strictly below gives not met.

- SUBSTANCE: "ANLKGTLQVRSGQAVSPR (listed as Homo sapiens) [AS21, RECQL4 alternative splicing]"
  GROUP: "not met"
- SUBSTANCE: "ENASLVFTGSNSPIPACELSSHPAHGISPWIPSPGNEHFHGIKKQVKAIKVE (listed as Homo sapiens) [AS48, SYT17 alternative splicing]"
  GROUP: "met"
- SUBSTANCE: "DGHSYTSKVNCLLLQDGFHGCVSITGAAGRRNLSIFLFLMLCKLEFHA (listed as Homo sapiens) [AS55.1, SPOCK1 alternative splicing]"
  GROUP: "not met"
- SUBSTANCE: "P37 (MAGGVLRRLLCREPDRDGDKGASREETVVPLHIGDPVVLPGIGQCYSALF; listed as Homo sapiens) [Neoantigen P37]"
  GROUP: "not met"
- SUBSTANCE: "QQLRIFCAAMASNEDFS (listed as Homo sapiens) [FUS11, MBTPS2->YY2 gene fusion]"
  GROUP: "met"
- SUBSTANCE: "WCPLDLRLGSTGCLTCRHHQTSHE (listed as Homo sapiens) [AS4, NCAPD3 alternative splicing]"
  GROUP: "met"

###

Test system: CD8+ T cells in PBMCs from human patients with metastatic castrate-resistant prostate cancer
METHOD_SUMMARY: Patient PBMC restimulation assay (in vitro immunogenicity, TNFα/IFNγ intracellular flow cytometry)
Assay type: cell-based
RECORDED_CONDITIONS: TNFα+IFNγ+CD8+ T cells; highest across PBMC donors evaluated; 9-mer peptide
// classify(record): look up Maximum fold change over negative control in ranges class 1 = under 3, class 2 = from 3 up to 5, class 3 = 5 and over

- SUBSTANCE: "P97 (GYLRMQGLMAQRLLLR; listed as Homo sapiens) [Peptide P97]"
  GROUP: "class 2"
- SUBSTANCE: "P37 (MAGGVLRRLLCREPDRDGDKGASREETVVPLHIGDPVVLPGIGQCYSALF; listed as Homo sapiens) [Peptide P37]"
  GROUP: "class 2"
- SUBSTANCE: "P27 (LHPQRETFTPRWSGANYWKLAFPVGAEGTFPAAATQRGVVRPA; listed as Homo sapiens) [Peptide P27]"
  GROUP: "class 2"
- SUBSTANCE: "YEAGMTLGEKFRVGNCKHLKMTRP (listed as Homo sapiens) [Neoantigen P82]"
  GROUP: "class 2"
- SUBSTANCE: "P60 (CYLRRQKRLKCEKQPGA; listed as Homo sapiens) [Peptide P60]"
  GROUP: "class 1"
- SUBSTANCE: "NSKMALNSLNSIDDAQLTRIAPPRSHCCFWEVNAP (listed as Homo sapiens) [Neoantigen P35]"
  GROUP: "class 1"
- SUBSTANCE: "P56 (PKSEVRAKCKFSILNAK; listed as Homo sapiens) [Peptide P56]"
  GROUP: "class 3"
- SUBSTANCE: "P77 (FFKRAAEGF) [Peptide P77]"
  GROUP: "class 2"
- SUBSTANCE: "YEAGMTLGGKILFFLFLLLPLSPFSLIF (listed as Homo sapiens) [Neoantigen P87]"
  GROUP: "class 2"
- SUBSTANCE: "P59 (LHPDSGNMVENGCYLRR; listed as Homo sapiens) [Peptide P59]"
  GROUP: "class 3"
- SUBSTANCE: "P46 (DDRNTFDIVWWCPMSRLRLALTVPPSTTTTCVTVPAWAA; listed as Homo sapiens) [Peptide P46]"
  GROUP: "class 1"
- SUBSTANCE: "GVPGDSTRRAVRRMNTF (listed as Homo sapiens) [Neoantigen P16]"
  GROUP: "class 3"
- SUBSTANCE: "P98: neoantigen 9 mer fragment used for PBMC stimulation (FIG. 5D) (IVWWCPMSR; listed as Homo sapiens) [Neoantigen P98]"
  GROUP: "class 3"

###

System: CD8+ and CD4+ T cells (autologous CD3+ Pan-T cells isolated from human normal PBMCs)
METHOD_SUMMARY: Exogenous autologous normal donor restimulation assay (15-mer overlapping peptide pools on CD1c+ dendritic cells, TNFα/IFNγ flow cytometry)
Assay type: cell-based
RECORDED_CONDITIONS: Table 28; additional neoantigens; 15-mer overlapping peptide pool; highest across normal donors
QUANTITY_MEASURED: Max. Fold Change over background CD4+ TNFαINFγ double positive DP

- SUBSTANCE: "PVPTATPGVRSVTSPQGLGLFLKFI (listed as Homo sapiens) [AS9, CACNA1D alternative splicing]"
  ENDPOINT_RESULT: 4.18
- SUBSTANCE: "GEVELSEGGEGQRHLAFPWACSGPGWRGVCCAAVEPA (listed as Homo sapiens) [AS32, TONSL alternative splicing]"
  ENDPOINT_RESULT: 2.04
- SUBSTANCE: "KEQILAVASLVSSQSIHPSWGQSPLSRI (listed as Homo sapiens) [FUS9, AP5S1->MAVS gene fusion]"
  ENDPOINT_RESULT: 203.97
- SUBSTANCE: "MS9 (SALSGNSWV; listed as Homo sapiens)"
  ENDPOINT_RESULT: 455.63
- SUBSTANCE: "MS2 (TDIVKQSV; listed as Homo sapiens)"
  ENDPOINT_RESULT: 15.12
- SUBSTANCE: "ANLKGTLQVRSGQAVSPR (listed as Homo sapiens) [AS21, RECQL4 alternative splicing]"
  ENDPOINT_RESULT: 1.7

###

# key: entry, value: Maximum Frequency of TNFα/IFNγ Double Positive CD4+ T cells
Test system: CD8+ and CD4+ T cells (autologous CD3+ Pan-T cells isolated from human normal PBMCs)
METHOD_SUMMARY: Exogenous autologous normal donor restimulation assay (15-mer overlapping peptide pools on CD1c+ dendritic cells, TNFα/IFNγ flow cytometry)
Format: cell-based
RECORDED_CONDITIONS: Table 25; 15-mer overlapping peptide pool; highest frequency across normal donors
QUANTITY_MEASURED: Maximum Frequency of TNFα/IFNγ Double Positive CD4+ T cells

- SEQUENCE_CODE: "WKFEMSYTVGGPPPHVHARPRHWKTDR (listed as Homo sapiens) [AS18, NWD1 alternative splicing]"
  MEASUREMENT_TARGET: "CD8+ and CD4+ T cells (autologous CD3+ Pan-T cells isolated from human normal PBMCs)"
  ENDPOINT_RESULT: 0.053
- SEQUENCE_CODE: "QWQHYHRSGEAAGTPLWRPTRN (listed as Homo sapiens) [AS19, NWD1 alternative splicing]"
  MEASUREMENT_TARGET: "CD8+ and CD4+ T cells (autologous CD3+ Pan-T cells isolated from human normal PBMCs)"
  ENDPOINT_RESULT: 0.1
- SEQUENCE_CODE: "KIQNKNCPD (listed as Homo sapiens) [AS23, ZNF614 alternative splicing]"
  MEASUREMENT_TARGET: "CD8+ and CD4+ T cells (autologous CD3+ Pan-T cells isolated from human normal PBMCs)"
  ENDPOINT_RESULT: 0.01
- SEQUENCE_CODE: "RTALTHNQDFSIYRLCCKRGSLCHASQARSPAFPKPVRPLPAPITRITPQLGGQSDSSQPLLTTGRPQGWQDQALRHTQQASPASCATITIPIHSAALGDHSGDPGPAWDTCPPLPLTTLIPRAPPPYGDSTARSWPSRCGPLG [MS3]"
  MEASUREMENT_TARGET: "CD8+ and CD4+ T cells (autologous CD3+ Pan-T cells isolated from human normal PBMCs)"
  ENDPOINT_RESULT: 0.09
- SEQUENCE_CODE: "SLYHREKQLIAMDSAI (listed as Homo sapiens) [Neoantigen P22]"
  MEASUREMENT_TARGET: "CD8+ and CD4+ T cells (autologous CD3+ Pan-T cells isolated from human normal PBMCs)"
  ENDPOINT_RESULT: 0.075
- SEQUENCE_CODE: "TEYNQKLQVNQFSESK (listed as Homo sapiens) [FUS2, ARHGEF38->ARHGEF38-IT1 gene fusion]"
  MEASUREMENT_TARGET: "CD8+ and CD4+ T cells (autologous CD3+ Pan-T cells isolated from human normal PBMCs)"
  ENDPOINT_RESULT: 0.03
- SEQUENCE_CODE: "TGGKSTCSAPGPQSLPSTPFSTYPQWVILITEL (listed as Homo sapiens) [AS57, KLK3 alternative splicing]"
  MEASUREMENT_TARGET: "CD8+ and CD4+ T cells (autologous CD3+ Pan-T cells isolated from human normal PBMCs)"
  ENDPOINT_RESULT: 0.110
- SEQUENCE_CODE: "GMECTLGQVGAPSPRREEDGWRGGHSRFKADVPAPQGPCWGGQPGSAPSSAPPEQSLLD (listed as Homo sapiens) [AS51, CPNE7 alternative splicing]"
  MEASUREMENT_TARGET: "CD8+ and CD4+ T cells (autologous CD3+ Pan-T cells isolated from human normal PBMCs)"
  ENDPOINT_RESULT: 0.140
- SEQUENCE_CODE: "HVVGYGHLDTSGSSSSSSWP (listed as Homo sapiens) [FUS15, D2HGDH->GAL3ST2 gene fusion]"
  MEASUREMENT_TARGET: "CD8+ and CD4+ T cells (autologous CD3+ Pan-T cells isolated from human normal PBMCs)"
  ENDPOINT_RESULT: 0.039
- SEQUENCE_CODE: "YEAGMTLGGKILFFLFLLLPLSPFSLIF (listed as Homo sapiens) [Neoantigen P87]"
  MEASUREMENT_TARGET: "CD8+ and CD4+ T cells (autologous CD3+ Pan-T cells isolated from human normal PBMCs)"
  ENDPOINT_RESULT: 0.110
- SEQUENCE_CODE: "DYWAQKEKGSSSFLRPSC (listed as Homo sapiens) [AS7, ACSM1 alternative splicing]"
  MEASUREMENT_TARGET: "CD8+ and CD4+ T cells (autologous CD3+ Pan-T cells isolated from human normal PBMCs)"
  ENDPOINT_RESULT: 0.045
- SEQUENCE_CODE: "CGASACDVSLIAMDSA (listed as Homo sapiens) [FUS1, SLC45A3->ELK4 gene fusion]"
  MEASUREMENT_TARGET: "CD8+ and CD4+ T cells (autologous CD3+ Pan-T cells isolated from human normal PBMCs)"
  ENDPOINT_RESULT: 0.100
- SEQUENCE_CODE: "FKKFDGPCGERGGGRTARALWARGDSVLTPALDPQTPVRAPSLTRAAAAV (listed as Homo sapiens) [AS47, AGRN alternative splicing]"
  MEASUREMENT_TARGET: "CD8+ and CD4+ T cells (autologous CD3+ Pan-T cells isolated from human normal PBMCs)"
  ENDPOINT_RESULT: 0.031
- SEQUENCE_CODE: "KRSFAVTERII (listed as Homo sapiens) [AS13, GRIN3A alternative splicing]"
  MEASUREMENT_TARGET: "CD8+ and CD4+ T cells (autologous CD3+ Pan-T cells isolated from human normal PBMCs)"
  ENDPOINT_RESULT: 0.05
- SEQUENCE_CODE: "LVLGVLSGHSGSRL (listed as Homo sapiens) [AS8, CACNA1D alternative splicing]"
  MEASUREMENT_TARGET: "CD8+ and CD4+ T cells (autologous CD3+ Pan-T cells isolated from human normal PBMCs)"
  ENDPOINT_RESULT: 0.049
- SEQUENCE_CODE: "VLRFLDLKVRYLHS (listed as Homo sapiens) [AS15, LRRC45 alternative splicing]"
  MEASUREMENT_TARGET: "CD8+ and CD4+ T cells (autologous CD3+ Pan-T cells isolated from human normal PBMCs)"
  ENDPOINT_RESULT: 0.110

The values you see were collected from patent US12295997B2.
